The origin of these recorded values is ChEMBL document CHEMBL5042526.

# TEST TARGET: Peroxisome proliferator-activated receptor delta (Homo sapiens)
# ASSAY SETUP: filed as agonist, dose 10.0 nM
Listing of recorded Emax by entry.
MEASURED PROPERTY: Emax (%)

# MOLECULAR STRING, MEASURED PROPERTY, UNIT INFO, DATA VALUE
rows = [
    ("CC(C)(Oc1ccc(Cn2ncn(-c3ccc(C(F)(F)F)cc3)c2=O)cc1F)C(=O)O", "Emax", "%", 118),
    ("Cc1ccc(-n2cnn(Cc3cc(C)c(OC(C)(C)C(=O)O)c(C)c3)c2=O)cc1", "Emax", "%", 87),
    ("CC(C)(Oc1ccc(Cn2ncn(-c3ccc(OC(F)(F)F)cc3)c2=O)cc1Cl)C(=O)O", "Emax", "%", 95),
    ("Cc1cc(Cn2ncn(-c3ccc(OC(F)(F)F)cc3)c2=O)cc(Cl)c1OC(C)(C)C(=O)O", "Emax", "%", 129),
    ("CCOc1ccc(-n2cnn(Cc3cc(C)c(OC(C)(C)C(=O)O)c(C)c3)c2=O)cc1", "Emax", "%", 81),
    ("CC(C)(Oc1ccc(Cn2ncn(-c3ccc(OC(F)(F)F)cc3)c2=O)cc1)C(=O)O", "Emax", "%", 71),
    ("Cc1cc(Cn2ncn(-c3ccc(C(F)(F)F)cc3)c2=O)cc(Cl)c1OC(C)(C)C(=O)O", "Emax", "%", 81),
    ("COc1ccc(-n2cnn(Cc3cc(C)c(OC(C)(C)C(=O)O)c(C)c3)c2=O)cc1", "Emax", "%", 107),
    ("CC(C)(Oc1c(F)cc(Cn2ncn(-c3ccc(OC(F)(F)F)cc3)c2=O)cc1F)C(=O)O", "Emax", "%", 113),
    ("CCc1cc(Cn2ncn(-c3ccc(OC(F)(F)F)cc3)c2=O)cc(CC)c1OC(C)(C)C(=O)O", "Emax", "%", 74),
    ("CCc1ccc(-n2cnn(Cc3cc(C)c(OC(C)(C)C(=O)O)c(C)c3)c2=O)cc1", "Emax", "%", 99),
    ("Cc1cc(Cn2ncn(-c3ccc(OC(F)(F)F)cc3)c2=O)ccc1OC(C)(C)C(=O)O", "Emax", "%", 97),
    ("Cc1cc(CCCn2ncn(-c3ccc(C(F)(F)F)cc3)c2=O)cc(C)c1OC(C)(C)C(=O)O", "Emax", "%", 72),
    ("Cc1cc(OCn2ncn(-c3ccc(C(F)(F)F)cc3)c2=O)cc(C)c1OC(C)(C)C(=O)O", "Emax", "%", 72),
    ("CC(C)(Oc1ccc(Cn2ncn(-c3ccc(OC(F)(F)F)cc3)c2=O)cc1OC(F)(F)F)C(=O)O", "Emax", "%", 160),
    ("CC(C)(Oc1ccc(Cn2ncn(-c3ccc(C(F)(F)F)cc3)c2=O)cc1Cl)C(=O)O", "Emax", "%", 97),
    ("Cc1cc(Cn2ncn(-c3ccc(Cl)cc3)c2=O)cc(C)c1OC(C)(C)C(=O)O", "Emax", "%", 114),
    ("CC(C)(Oc1c(Cl)cc(Cn2ncn(-c3ccc(OC(F)(F)F)cc3)c2=O)cc1Cl)C(=O)O", "Emax", "%", 118),
    ("CC(C)(Oc1ccc(Cn2ncn(-c3ccc(OC(F)(F)F)cc3)c2=O)cc1F)C(=O)O", "Emax", "%", 105),
]

----------
Listing of recorded Emax by entry.
# TEST TARGET: Peroxisome proliferator-activated receptor gamma (Homo sapiens)
# ASSAY SETUP: filed as agonist, dose 10.0 nM

# MOLECULAR STRING, TEST TARGET, UNIT INFO, Emax
rows = [
    ("Cc1ccc(-n2cnn(Cc3cc(C)c(OC(C)(C)C(=O)O)c(C)c3)c2=O)cc1", "Peroxisome proliferator-activated receptor gamma (Homo sapiens)", "%", 87),
    ("CCc1cc(Cn2ncn(-c3ccc(OC(F)(F)F)cc3)c2=O)cc(CC)c1OC(C)(C)C(=O)O", "Peroxisome proliferator-activated receptor gamma (Homo sapiens)", "%", 125),
    ("Cc1cc(Cn2ncn(-c3ccc(C(F)(F)F)cc3)c2=O)cc(Cl)c1OC(C)(C)C(=O)O", "Peroxisome proliferator-activated receptor gamma (Homo sapiens)", "%", 76),
    ("CC(C)(Oc1ccc(Cn2ncn(-c3ccc(OC(F)(F)F)cc3)c2=O)cc1OC(F)(F)F)C(=O)O", "Peroxisome proliferator-activated receptor gamma (Homo sapiens)", "%", 70),
    ("CC(C)(Oc1ccc(Cn2ncn(-c3ccc(C(F)(F)F)cc3)c2=O)cc1Cl)C(=O)O", "Peroxisome proliferator-activated receptor gamma (Homo sapiens)", "%", 99),
    ("CCc1ccc(-n2cnn(Cc3cc(C)c(OC(C)(C)C(=O)O)c(C)c3)c2=O)cc1", "Peroxisome proliferator-activated receptor gamma (Homo sapiens)", "%", 149),
    ("CC(C)(Oc1ccc(Cn2ncn(-c3ccc(OC(F)(F)F)cc3)c2=O)cc1Cl)C(=O)O", "Peroxisome proliferator-activated receptor gamma (Homo sapiens)", "%", 67),
    ("COc1ccc(-n2cnn(Cc3cc(C)c(OC(C)(C)C(=O)O)c(C)c3)c2=O)cc1", "Peroxisome proliferator-activated receptor gamma (Homo sapiens)", "%", 114),
    ("Cc1cc(Cn2ncn(-c3ccc(OC(F)(F)F)cc3)c2=O)ccc1OC(C)(C)C(=O)O", "Peroxisome proliferator-activated receptor gamma (Homo sapiens)", "%", 110),
    ("Cc1cc(Cn2ncn(-c3ccc(Cl)cc3)c2=O)cc(C)c1OC(C)(C)C(=O)O", "Peroxisome proliferator-activated receptor gamma (Homo sapiens)", "%", 180),
    ("Cc1cc(Cn2ncn(-c3ccccc3C(F)(F)F)c2=O)cc(C)c1OC(C)(C)C(=O)O", "Peroxisome proliferator-activated receptor gamma (Homo sapiens)", "%", 84),
]

----------
# TEST TARGET: Peroxisome proliferator-activated receptor alpha (Homo sapiens) (UniProt Q07869)
# Sequence (Q07869 whole entry): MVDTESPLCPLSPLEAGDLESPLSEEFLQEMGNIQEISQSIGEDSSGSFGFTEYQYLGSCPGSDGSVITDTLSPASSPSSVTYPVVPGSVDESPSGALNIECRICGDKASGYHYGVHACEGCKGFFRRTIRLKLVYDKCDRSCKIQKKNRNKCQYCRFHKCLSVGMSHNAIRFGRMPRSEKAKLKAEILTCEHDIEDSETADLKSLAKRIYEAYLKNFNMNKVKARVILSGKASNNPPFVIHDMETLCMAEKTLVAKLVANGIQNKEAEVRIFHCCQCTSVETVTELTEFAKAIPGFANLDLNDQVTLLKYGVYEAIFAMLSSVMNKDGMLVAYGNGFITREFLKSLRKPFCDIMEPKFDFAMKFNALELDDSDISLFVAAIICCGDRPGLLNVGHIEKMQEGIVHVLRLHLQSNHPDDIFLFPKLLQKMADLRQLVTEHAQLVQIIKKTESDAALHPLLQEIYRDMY
# ASSAY SETUP: filed as agonist, dose 10.0 nM
# Description: Agonist activity at PPARalpha (unknown origin) assessed as maximal activation at 10 nM relative to GW7647
MEASURED PROPERTY: Emax (%)

# MOLECULAR STRING, TEST TARGET, DATA VALUE
data = [
    ("CC(C)(Oc1ccc(Cn2ncn(-c3ccc(OC(F)(F)F)cc3)c2=O)cc1F)C(=O)O", "Peroxisome proliferator-activated receptor alpha (Homo sapiens) (UniProt Q07869)", 102),
    ("CC(C)(Oc1ccc(Cn2ncn(-c3ccc(OC(F)(F)F)cc3)c2=O)cc1Cl)C(=O)O", "Peroxisome proliferator-activated receptor alpha (Homo sapiens) (UniProt Q07869)", 111),
    ("Cc1cc(CCCn2ncn(-c3ccc(C(F)(F)F)cc3)c2=O)cc(C)c1OC(C)(C)C(=O)O", "Peroxisome proliferator-activated receptor alpha (Homo sapiens) (UniProt Q07869)", 78),
    ("CCc1ccc(-n2cnn(Cc3cc(C)c(OC(C)(C)C(=O)O)c(C)c3)c2=O)cc1", "Peroxisome proliferator-activated receptor alpha (Homo sapiens) (UniProt Q07869)", 98),
    ("Cc1cc(Cn2ncn(-c3ccc(OC(F)(F)F)cc3)c2=O)cc(C)c1OC(C)(C)C(=O)O", "Peroxisome proliferator-activated receptor alpha (Homo sapiens) (UniProt Q07869)", 110),
    ("Cc1cc(OCn2ncn(-c3ccc(C(F)(F)F)cc3)c2=O)cc(C)c1OC(C)(C)C(=O)O", "Peroxisome proliferator-activated receptor alpha (Homo sapiens) (UniProt Q07869)", 69),
    ("CC(C)(Oc1c(F)cc(Cn2ncn(-c3ccc(OC(F)(F)F)cc3)c2=O)cc1F)C(=O)O", "Peroxisome proliferator-activated receptor alpha (Homo sapiens) (UniProt Q07869)", 99),
    ("CC(C)(Oc1c(Cl)cc(Cn2ncn(-c3ccc(OC(F)(F)F)cc3)c2=O)cc1Cl)C(=O)O", "Peroxisome proliferator-activated receptor alpha (Homo sapiens) (UniProt Q07869)", 153),
    ("Cc1cc(Cn2ncn(-c3ccc(Cl)cc3)c2=O)cc(C)c1OC(C)(C)C(=O)O", "Peroxisome proliferator-activated receptor alpha (Homo sapiens) (UniProt Q07869)", 126),
    ("CC(C)(Oc1ccc(Cn2ncn(-c3ccc(OC(F)(F)F)cc3)c2=O)cc1)C(=O)O", "Peroxisome proliferator-activated receptor alpha (Homo sapiens) (UniProt Q07869)", 109),
    ("CC(C)(Oc1ccc(Cn2ncn(-c3ccc(C(F)(F)F)cc3)c2=O)cc1F)C(=O)O", "Peroxisome proliferator-activated receptor alpha (Homo sapiens) (UniProt Q07869)", 136),
]

----------
# TEST TARGET: Peroxisome proliferator-activated receptor delta (Homo sapiens, UniProt Q03181)
# Sequence (Q03181 whole entry): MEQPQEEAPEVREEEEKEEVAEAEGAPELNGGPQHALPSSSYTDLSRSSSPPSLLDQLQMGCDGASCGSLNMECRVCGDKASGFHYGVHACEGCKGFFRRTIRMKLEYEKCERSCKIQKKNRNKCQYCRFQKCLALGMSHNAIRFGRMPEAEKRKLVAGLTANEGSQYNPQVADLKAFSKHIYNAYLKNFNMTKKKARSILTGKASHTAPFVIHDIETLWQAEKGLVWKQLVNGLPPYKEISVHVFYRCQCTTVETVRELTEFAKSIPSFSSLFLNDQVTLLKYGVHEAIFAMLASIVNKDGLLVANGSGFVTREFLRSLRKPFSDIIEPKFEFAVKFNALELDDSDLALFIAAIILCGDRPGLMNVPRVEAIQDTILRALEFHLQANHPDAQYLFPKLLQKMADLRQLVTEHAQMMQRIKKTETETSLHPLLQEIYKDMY
# ASSAY PROTOCOL: Agonist activity at PPARdelta (unknown origin)
Listing of recorded EC50 by entry.
MEASURED PROPERTY: EC50

# MOLECULAR STRING, TEST TARGET, MEASURED PROPERTY, DATA VALUE
records = [
    ("O=C(O)CCCc1cc2cc(Cl)ccc2n1S(=O)(=O)c1ccc2ncsc2c1", "Peroxisome proliferator-activated receptor delta (Homo sapiens, UniProt Q03181)", "EC50", "2960 nM"),
    ("Cc1cc(Cn2ncn(-c3ccc(C#N)cc3)c2=O)cc(C)c1OC(C)(C)C(=O)O", "Peroxisome proliferator-activated receptor delta (Homo sapiens, UniProt Q03181)", "EC50", "> 5000 nM"),
    ("Cc1cc(Cn2ncn(-c3ccc(C(F)(F)F)cc3)c2=O)cc(Cl)c1OC(C)(C)C(=O)O", "Peroxisome proliferator-activated receptor delta (Homo sapiens, UniProt Q03181)", "EC50", "14.7 nM"),
    ("Cc1cc(Cn2ncn(-c3ccccc3C(F)(F)F)c2=O)cc(C)c1OC(C)(C)C(=O)O", "Peroxisome proliferator-activated receptor delta (Homo sapiens, UniProt Q03181)", "EC50", "> 5000 nM"),
    ("Cc1cc(Cn2ncn(-c3ccc(OC(F)(F)F)cc3)c2=O)cc(C(F)(F)F)c1OC(C)(C)C(=O)O", "Peroxisome proliferator-activated receptor delta (Homo sapiens, UniProt Q03181)", "EC50", "5.6 nM"),
    ("Cc1cc(Cn2ncn(-c3ccc(Br)cc3)c2=O)cc(C)c1OC(C)(C)C(=O)O", "Peroxisome proliferator-activated receptor delta (Homo sapiens, UniProt Q03181)", "EC50", "21.6 nM"),
    ("Cc1cc(Cc2cc(-c3ccc(Br)cc3)on2)cc(C)c1OC(C)(C)C(=O)O", "Peroxisome proliferator-activated receptor delta (Homo sapiens, UniProt Q03181)", "EC50", "24.2 nM"),
]
